# Test protocol: Rat biodistribution of Tc-99m complexes
# Condition details: 2 min p.i.
Measured property: Heart/Liver Counts/Gram Ratio

Compound | Recorded number
CCOCCP(CCOCC)CC(CP(CCOCC)CCOCC)OC [Compound 36] | 0.73
COCCCP(CCCOC)CCP(CCCOC)CCCOC [Compound 3] | 1.71
CCOCCP(CCCP(CCOCC)CCOCC)CCOCC [Compound 34] | 0.22

[1] CCOCP(CCCP(COCC)COCC)COCC [Compound 33]
[2] CCC(CP(CCP(CC(CC)OC)CC(CC)OC)CC(CC)OC)OC (stereo not shown) [Compound 12]
Problem: // pick min by Heart/Liver Counts/Gram Ratio: 1 , 2 Write down the label attached to your selection.
Solution: 1

[a] CCOCC(COCC)CP(CCP(CC(COCC)COCC)CC(COCC)COCC)CC(COCC)COCC [Compound 18]
[b] CCOCCP(CCOC(C)C)CCP(CCOCC)CCOC(C)C (stereo not shown) [Compound 31]
[c] CCOC(CCP(CCC(OCC)OCC)CCP(CCC(OCC)OCC)CCC(OCC)OCC)OCC [Compound 20]
Problem: Please produce an ascending ranking of these compounds based on Heart/Liver Counts/Gram Ratio. Response field: labels, in requested order.
Solution: a, c, b

[1] CCOC(C)CP(CCP(CC(C)OCC)CC(C)OCC)CC(C)OCC (stereo not shown) [Compound 13]
[2] CCOCP(CCP(COCC)COCC)COCC [Compound 5]
Problem: Among 1 and 2 , whose measured Heart/Liver Counts/Gram Ratio is the smaller figure? Choose, then provide that item's label.
Solution: 2
